system-name: Methyl-CpG-binding domain protein 2 (Homo sapiens)
experiment-description: MBD2-DBD methyl-oligonucleotide interaction blockers – biochemical, TR-FRET, DNA-binding domain, human, confirmation (AID 720531)
setup-conditions: TR-FRET MBD2-DBD binding to methylated oligonucleotide; at 4.4 µM
Out of some 1,000 compounds screened, about 270 (27%) were called active. Cut-off read from the data, not from the text of the source: active = inhibition above about 14%; inactive = the rest. A selection follows.
Response enum: label 1 = active, label 0 = inactive

How did this test come out for COc1ccc(CNC(=O)c2c[nH]c3c(OC)cc(OC)cc3c2=O)cc1 ? label 0

How did this test come out for COC(=O)c1cccc(NC(=O)c2cccc(N3C(=O)CCC3=O)c2)c1 ? label 0

How did this test come out for COC(=O)[C@]12C[C@H](CC(=O)NCCC(C)C)C(=O)N(CCc3ccc(OC)c(OC)c3)C1=C[C@H](C(C)(C)C)O[C@@H]2C ? label 0

How did this test come out for c1ccc2cc3c(NCCN4CCOCC4)ccnc3cc2c1 ? label 1

How did this test come out for Cc1ccc(C(=O)Nc2ccc3c(c2)OCO3)cc1S(=O)(=O)N1CCCCC1 ? label 0

How did this test come out for CCN(CC)CCOc1ccc2c(c1)C(=NNC(=O)c1ccccn1)c1cc(OCCN(CC)CC)ccc1-2 ? label 1

How did this test come out for C=CC1=C(C(=O)O)N2C(=O)[C@@H](NC(=O)/C(=N\OCC(=O)O)c3csc(N)n3)[C@H]2SC1 ? label 1

How did this test come out for Cc1ccc(-c2ccnc3nc(Sc4ncc(C(F)(F)F)cc4Cl)nn23)cc1 ? label 0

How did this test come out for CN(C(=O)COC(=O)c1cc(-c2ccco2)nc2ccccc12)C1CCS(=O)(=O)C1 (stereo not drawn) ? label 1

How did this test come out for CC(C)Oc1ccc(C2NC(=O)NC2=O)cc1 (stereo not drawn) ? label 0

How did this test come out for Cc1cc(C)c2nc3nc(C)cc(C)c3c(N)c2c1 ? label 1

How did this test come out for Cc1c(NS(=O)(=O)c2cc(C(=O)NCCc3ccc(F)cc3)cc(Cl)c2Cl)c(=O)n(-c2ccccc2)n1C ? label 0

How did this test come out for COc1ccc(OCc2cc(C(=O)NCC3(C)COC3)no2)c(Cl)c1 ? label 0

How did this test come out for CN(C)[C@@H]1C(=O)C(C(N)=O)=C(O)[C@@]2(O)C(=O)C3=C(O)c4c(O)ccc(Cl)c4[C@@H](O)[C@H]3C[C@@H]12 ? label 0

How did this test come out for COC(=O)c1c(NC(=O)c2ccc(S(=O)(=O)N3CCOCC3)cc2)sc2c1CCN(C(C)C)C2 ? label 1

How did this test come out for CCOC(=O)C1C(=O)OC2(CCCC2)C1C(=O)OCC (stereo not drawn) ? label 0

How did this test come out for COc1ccc2[nH]c3c(C)c4cc[n+](C)cc4c(C)c3c2c1 ? label 1

How did this test come out for CCOC(=O)c1ccc(-n2c(CCC(=O)O)ccc2-c2ccccc2)cc1 ? label 0

How did this test come out for Cc1c(C=O)n(C)n(-c2ccccc2)c1=O ? label 0

How did this test come out for COc1ccc(COC[C@H](CC(C)C)N2CCN(C(=O)c3cccc(C(F)(F)F)c3)CCC2=O)cc1 ? label 0

How did this test come out for C=C1c2c(Cl)ccc(O)c2C(O)=C2C(=O)[C@]3(O)C(O)=C(C(N)=O)C(=O)[C@@H](N(C)C)[C@@H]3[C@@H](O)C12 (stereo partly drawn) ? label 0

How did this test come out for C=CCN1C(=O)c2ccc(C(=O)N3CCC(C(=O)OCC)CC3)cc2C1=O ? label 0

How did this test come out for CCOc1cc(N2CCOCC2)c(OCC)cc1NC(=O)c1cc(C)nc2ccccc12 ? label 0

How did this test come out for Cc1cccc(NC(=O)C[C@H]2CC[C@H]3[C@@H](COc4ccc(NC(=O)Nc5ccccc5)cc4C(=O)N3C)O2)c1 ? label 0

How did this test come out for CNC(=O)C[C@H]1C(=O)N(c2ccc(OC)cc2)C[C@@H]1Cc1ccccc1 ? label 0

How did this test come out for Cc1cccc(CN2CCN(C3CN(Cc4cn(Cc5cc(C)cc(C)c5)nn4)S(=O)(=O)C3)CC2)c1 (stereo not drawn) ? label 0

How did this test come out for COc1ccc2c(c1)c(=Cc1ccc(N(C)C)cc1)c1cc(-c3ccccc3)[n+](C)n12 ? label 1

How did this test come out for CCOc1ccc(S(=O)(=O)N2CCC(c3ccccc3)CC2)cc1C(=O)O ? label 0

How did this test come out for CCOc1ccc(-n2c(SCC(=O)Nc3ccc(OC)cc3)nc3sc4c(c3c2=O)CCN(C)C4)cc1 ? label 0

How did this test come out for COc1nc(N(C)C)nc(N2CC(=O)N(CCNS(=O)(=O)c3ccc(C)cc3)C2=N)n1 ? label 0

How did this test come out for C=CCn1c(=S)[nH]c2scc(-c3ccco3)c2c1=O ? label 1

How did this test come out for Cc1ccc(C)c(NC(=O)c2ccc(OC(=O)c3ccco3)cc2)c1 ? label 0

How did this test come out for COC(=O)c1ccc2nc(-c3cccc(Br)c3)c(Cc3ccc(OC)cc3C)n2c1 ? label 0
